B1: POU domain, class 3, transcription factor 3, residues 408 to 463; numbered along this chain, P20264 (parent)
chain: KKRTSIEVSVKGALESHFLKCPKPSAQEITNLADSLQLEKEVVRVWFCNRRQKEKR

Variants of: B1
Experiment: abundance fitness (aPCA) (normalised: wild type 0, dead -1); higher = more abundant; growth selection in yeast, the domain comes from the species named
Settings: Homo sapiens
Record form. Attribute: abundance fitness. Fill in for each entry.

E39K; -0.258
F18L; -1.01
V8N; 0.039
A26W; -0.155
E54N; -0.474
V45Q; 0.052

Record abundance fitness per entry; entries follow.
1. V8K
2. R44E
3. Q52P
4. V10E

[0.068, 0.213, -0.705, 0.154]

Record abundance fitness per entry; entries follow.
1. F18S
2. H17L
3. L14Q
4. V43S
5. C21H
6. C48P
7. L19K
8. I6D

-0.902
-0.188
-0.942
-0.926
-0.031
-0.657
-0.057
-0.135

Record abundance fitness per entry; entries follow.
1. A33T
2. S35L
3. P24D
4. K20P
5. Q52C
6. V42H

-0.939
-0.083
-0.802
-0.912
-0.126
-0.34

Record abundance fitness per entry; entries follow.
1. K23R
2. E41D

[-0.049, 0.037]

Record abundance fitness per entry; entries follow.
1. P24L
2. A26P

1: -0.881; 2: 0.039

Record abundance fitness per entry; entries follow.
1. C21T
2. S35Q

1. -0.094
2. -0.04

Record abundance fitness per entry; entries follow.
1. G12H
2. A13N
3. K11Y
4. R51V

[-0.009, -0.274, 0.067, -0.222]

Record abundance fitness per entry; entries follow.
1. P24R
2. E39P
3. L14A

[-0.918, -0.116, -0.8]
